Source of measurements: patent US20080026998

System Name: T1, plasmin (human, UniProt P00747)
T1 chain: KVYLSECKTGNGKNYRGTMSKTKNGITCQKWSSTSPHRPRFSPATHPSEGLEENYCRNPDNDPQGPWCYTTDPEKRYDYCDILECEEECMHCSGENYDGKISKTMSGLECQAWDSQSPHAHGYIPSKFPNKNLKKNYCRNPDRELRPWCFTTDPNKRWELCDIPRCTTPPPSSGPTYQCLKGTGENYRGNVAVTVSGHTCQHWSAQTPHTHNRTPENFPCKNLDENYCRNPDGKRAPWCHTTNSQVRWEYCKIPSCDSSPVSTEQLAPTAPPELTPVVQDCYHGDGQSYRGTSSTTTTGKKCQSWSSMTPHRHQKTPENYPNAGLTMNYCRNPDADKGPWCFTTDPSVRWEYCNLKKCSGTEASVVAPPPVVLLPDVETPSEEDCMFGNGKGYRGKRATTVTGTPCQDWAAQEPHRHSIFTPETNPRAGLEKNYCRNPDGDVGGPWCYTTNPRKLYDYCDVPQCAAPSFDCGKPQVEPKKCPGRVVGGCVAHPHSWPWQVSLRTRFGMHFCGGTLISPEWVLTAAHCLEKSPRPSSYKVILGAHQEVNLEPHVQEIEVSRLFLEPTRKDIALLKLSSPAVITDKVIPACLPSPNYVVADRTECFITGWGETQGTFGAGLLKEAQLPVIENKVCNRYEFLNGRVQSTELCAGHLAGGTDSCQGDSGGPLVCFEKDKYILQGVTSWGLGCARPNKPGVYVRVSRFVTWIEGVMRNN
Readout Name: pKi
Bear in mind: pKi is minus log10 of a mol/L concentration; give just that figure.

# input Give the measured pKi of KD1 R24K/L26R (protein) DAAQEPTGNNAEICLLPLDYGPCKARLLRYYYDRYTQSCRQFLYGGCEGNANNFYTWEACDDACWRIEKVPKV .
# output 8.66
